Tested Target: T1, human CD79b fused with an Fc domain at the C-terminus (printed at paragraph 314 as Human CD79a fused with an Fc … (human, UniProt P40259 29-159))
T1 construct: also called CD79b immobilized at a low density; Fc-tagged ECD of human CD79b; not shown: Fc domain at the C-terminus
T1 sequence: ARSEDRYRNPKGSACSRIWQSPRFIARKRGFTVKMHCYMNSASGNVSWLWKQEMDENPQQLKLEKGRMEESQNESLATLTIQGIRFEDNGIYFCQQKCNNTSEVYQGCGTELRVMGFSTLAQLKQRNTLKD
Protocol Summary: Biacore T100 SPR, bivalent IgG over CD79b-Fc immobilized at low density; apparent affinity
pKd values for the binders below.
Please keep in mind that pKd is minus log10 of the molar concentration; only the number is needed.

Answered examples (3):
{"Binder": "CD79b.A7.v20 (antibody, V domains shown, VH1e + VL4; assessed as IgG) VH: EVQLVQSGAEVKKPGASVKVSCKASGYTFTTYWMNWVRQAPGQGLEWIGMIDPSDSETHYNQMFKDRATITVDTSTSTAYLELSSLRSEDTAVYYCSRSLAFWGQGTLVTVSS VL: DIVMTQTPLSLPVTPGQPASISCKSSQSLLDSDGKTYLNWLLQKPGQSPQSLIYLVSKLDSGVPDRFSGSGSGTDFTLKISRVEAEDVGVYYCWQGTHFPQTFGQGTKVEIK", "pKd": 8.10}
{"Binder": "CD79b.A7.v21 (antibody, V domains shown, VH1f + VL4; assessed as IgG) VH: EVQLVQSGAEVKKPGASVKVSCKASGYTFTTYWMNWVRQAPGQGLEWIGMIDPSDSETHYNQMFKDRVTLTVDTSTSTAYLELSSLRSEDTAVYYCSRSLAFWGQGTLVTVSS VL: DIVMTQTPLSLPVTPGQPASISCKSSQSLLDSDGKTYLNWLLQKPGQSPQSLIYLVSKLDSGVPDRFSGSGSGTDFTLKISRVEAEDVGVYYCWQGTHFPQTFGQGTKVEIK", "pKd": 8.10}
{"Binder": "CD79b.A7.v14 (antibody, V domains shown, VH1c + VL4; bivalent, dual arm IgG; also called huCD79b.A7.v14; CD79.A7.v14) VH: EVQLVQSGAEVKKPGASVKVSCKASGYTFTTYWMNWVRQAPGQGLEWIGMIDPSDSETHYNQMFKDRATLTVDTSTSTAYLELSSLRSEDTAVYYCSRSLAFWGQGTLVTVSS VL: DIVMTQTPLSLPVTPGQPASISCKSSQSLLDSDGKTYLNWLLQKPGQSPQSLIYLVSKLDSGVPDRFSGSGSGTDFTLKISRVEAEDVGVYYCWQGTHFPQTFGQGTKVEIK", "pKd": 8.30}

So what's the measured pKd for this one? CD79b.A7.v19 (antibody, V domains shown, VH1d + VL5; assessed as IgG) VH: EVQLVQSGAEVKKPGASVKVSCKASGYTFTTYWMNWVRQAPGQGLEWIGMIDPSDSETHYNQMFKDRATLTVDKSTSTAYLELSSLRSEDTAVYYCSRSLAFWGQGTLVTVSS VL: DVVMTQTPLSLPVTPGQPASISCKSSQSLLDSDGKTYLNWLLQKPGQSPQSLIYLVSKLDSGVPDRFSGSGSGTDFTLKISRVEAEDVGVYYCWQGTHFPQTFGQGTKVEIK 8.40

So what's the measured pKd for this one? CD79b.A7.v18 (antibody, V domains shown, VH1d + VL4; assessed as IgG) VH: EVQLVQSGAEVKKPGASVKVSCKASGYTFTTYWMNWVRQAPGQGLEWIGMIDPSDSETHYNQMFKDRATLTVDKSTSTAYLELSSLRSEDTAVYYCSRSLAFWGQGTLVTVSS VL: DIVMTQTPLSLPVTPGQPASISCKSSQSLLDSDGKTYLNWLLQKPGQSPQSLIYLVSKLDSGVPDRFSGSGSGTDFTLKISRVEAEDVGVYYCWQGTHFPQTFGQGTKVEIK 8.40

So what's the measured pKd for this one? CD79b.A7.v15 (antibody, V domains shown, VH1c + VL5; assessed as IgG) VH: EVQLVQSGAEVKKPGASVKVSCKASGYTFTTYWMNWVRQAPGQGLEWIGMIDPSDSETHYNQMFKDRATLTVDTSTSTAYLELSSLRSEDTAVYYCSRSLAFWGQGTLVTVSS VL: DVVMTQTPLSLPVTPGQPASISCKSSQSLLDSDGKTYLNWLLQKPGQSPQSLIYLVSKLDSGVPDRFSGSGSGTDFTLKISRVEAEDVGVYYCWQGTHFPQTFGQGTKVEIK 8.30
